assay_method_text: Enteral absorption in vivo (rats): intraduodenal injection, antibiotic plasma level by agar-plate bioassay
measurement_parameters: female, rat, in vivo, 5 mg/0,5 ml, Cmax, Dosis = 5 mg/0,5 ml, Labrasol + Laureth-12 (weight ratio 8:1)
value_type: Cmax (ng/mL)
Write the answer as a number in ng/mL, unit excluded.

Which value of Cmax has been reported for CN[C@H](CC(C)C)C(=O)N[C@H]1C(=O)N[C@@H](CC(N)=O)C(=O)N[C@H]2C(=O)N[C@H]3C(=O)N[C@H](C(=O)N[C@H](C(=O)O)c4cc(O)cc(O)c4-c4cc3ccc4O)[C@H](O)c3ccc(c(Cl)c3)Oc3cc2cc(c3O[C@@H]2O[C@H](CO)[C@@H](O)[C@H](O)[C@H]2O[C@H]2C[C@](C)(N)[C@H](O)[C@H](C)O2)Oc2ccc(cc2Cl)[C@H]1O [Vancomycin] in the records?
6900
